Just for reference, the supplement of paper PMC4466140 is where these values come from.

- targetOrSystem: AgHof1
- measurementDescription: SPOT peptide array binding signal intensity (averaged, normalized) (arbitrary units (background-subtracted, floor 0; scale differs between SH3 domains)); higher = stronger binding of the SH3 domain to the peptide
measurementKind: SPOT peptide array binding signal intensity

binder: GAGERPRLVPRPINV
measValue: 8.5

binder: LFMKGTPEFPKSGFS
measValue: 7

binder: SHRLWLYAAPKRPKT
measValue: 26

binder: YVRRRPRVRLEPLLS
measValue: 35

binder: TEVPIPRRPPPPQAA
measValue: ≤ 0

binder: RRARRQMGIPTISQV
measValue: 83.8

binder: QPWTDQFEKLEKEVS
measValue: ≤ 0
